# PROTOCOL DESCRIPTION: physchem
READOUT LABEL: pKa
Reply: number alone, nothing else.

Which pKa value belongs to OCC(F)(F)C(F)(F)C(F)(F)CO ?
11

---

# PROTOCOL DESCRIPTION: physchem
# ASSAY CONDITIONS: water
READOUT LABEL: pKa

[[record]]
compound = "OCCCCCO [1,5-pentanediol, reference compound]"
readout_label = "pKa"
result = 17


Now look at this entry.
Requested field: pKa. Item: OCC(F)(F)F [2,2,2-trifluoroethanol]
11

Where these numbers come from: patent EP0837085A1
